Listing: pIC50 of selected compounds
- target_system: 1D-myo-inositol 2-acetamido-2-deoxy-alpha-D-glucopyranoside deacetylase (Mycobacterium tuberculosis, UniProt P9WJN3)
- Sequence (P9WJN3 whole entry): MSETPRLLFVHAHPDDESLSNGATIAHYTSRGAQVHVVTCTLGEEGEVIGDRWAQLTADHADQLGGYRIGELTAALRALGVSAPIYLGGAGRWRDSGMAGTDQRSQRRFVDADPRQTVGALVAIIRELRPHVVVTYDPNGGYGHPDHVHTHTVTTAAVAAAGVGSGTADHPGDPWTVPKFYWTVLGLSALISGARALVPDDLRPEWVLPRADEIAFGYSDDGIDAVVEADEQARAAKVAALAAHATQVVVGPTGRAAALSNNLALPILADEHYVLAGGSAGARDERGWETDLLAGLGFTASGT
Would you please state pIC50, meaning minus log10 of the concentration in mol/L, as a bare number?

Known results for compounds:
O=C(N[C@H]1[C@H](O)[C@@H](O)[C@H](CO)O[C@H]1SC1CCCCC1)c1ccc(-c2ccc(Cl)cc2)o1 (single isomer, unassigned)	5.15
O=C(N[C@H]1[C@H](O)[C@@H](O)[C@H](CO)O[C@H]1SC1CCCCC1)C1COC(c2cccc(F)c2)=N1 (single isomer, unassigned)	4.55

What value of pIC50 has been recorded for this entry: O=S(=O)(CCCCc1ccccc1)N[C@H]1[C@H](O)[C@@H](O)[C@H](CO)O[C@H]1SC1CCCCC1 (single isomer, unassigned)
4.00

Entry O=C(N[C@H]1[C@H](O)[C@@H](O)[C@H](CO)O[C@H]1SC1CCCCC1)C1CCOC(c2cccc(F)c2)=N1 (single isomer, unassigned) please
5.00

Entry O=S(=O)(/C=C/CCc1ccccc1)N[C@H]1[C@H](O)[C@@H](O)[C@H](CO)O[C@H]1SC1CCCCC1 (single isomer, unassigned) please
3.98

====

- target_system: Mycothiol S-conjugate amidase (Mycobacterium tuberculosis)
- Sequence (P9WJN1 whole entry): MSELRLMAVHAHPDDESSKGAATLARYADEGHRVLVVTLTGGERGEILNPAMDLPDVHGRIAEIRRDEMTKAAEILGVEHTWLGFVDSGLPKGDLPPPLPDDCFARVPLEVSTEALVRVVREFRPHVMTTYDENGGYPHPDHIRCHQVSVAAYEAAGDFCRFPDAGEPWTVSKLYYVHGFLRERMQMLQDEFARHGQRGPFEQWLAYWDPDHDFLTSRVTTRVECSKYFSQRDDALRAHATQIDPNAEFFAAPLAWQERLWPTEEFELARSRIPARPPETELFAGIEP
Listing: pIC50 of selected molecules
Would you please state pIC50, meaning minus log10 of the concentration in mol/L, as a bare number?

O=S(=O)(CCCCc1ccccc1)N[C@H]1[C@H](O)[C@@H](O)[C@H](CO)O[C@H]1SC1CCCCC1 (single isomer, unassigned)	3.92
CC(C)(C)C(=O)ON[C@@H](CCc1ccccc1)C(=O)N[C@H]1[C@H](O)[C@@H](O)[C@H](CO)O[C@H]1SC1CCCCC1	3.84
O=C(N[C@H]1[C@H](O)[C@@H](O)[C@H](CO)O[C@H]1SC1CCCCC1)c1ccc(-c2ccc(Cl)cc2)o1 (single isomer, unassigned)	4.48

The record that follows has no pIC50 shown yet.
What value of pIC50 has been recorded for this entry: O=S(=O)(/C=C/CCc1ccccc1)N[C@H]1[C@H](O)[C@@H](O)[C@H](CO)O[C@H]1SC1CCCCC1 (single isomer, unassigned)
4.05
